system: 885512-296-R-J2-PDC complex spheroid viability; test: Anticancer human tumor 885512-296-R-J2-PDC patient-derived breast carcinoma cell line growth inhibition [GQUAD]; conditions: second compound 0.0316 µM; first compound 0.0316 µM; active = viability on the fitted dose curve at most 10% of control; inactive = the rest;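 also: spheroids exposed to the compounds for one week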
Respond with a class label; see YES = active, NO = inactive

Solved cases (3 shown):
CC(C)(O)C1CCC(Nc2ccc3ncc(-c4cccc(C(F)(F)F)c4)n3n2)CC1 (stereo not given) + CN(C)c1ccc(Nc2c3ccc(NC(=O)CCN4CCCC4)cc3nc3cc(NC(=O)CCN4CCCC4)ccc23)cc1    NO
O=C(NO)c1cnc(N2CCN(S(=O)(=O)c3ccc4ccccc4c3)CC2)nc1 + Cc1[nH]c2ccc(F)cc2c1-c1nc2c3cccnc3c3ncccc3c2[nH]1    YES
CC[C@@]1(O)C(=O)OCc2c1cc1n(c2=O)Cc2cc3c(CN(C)C)c(O)ccc3nc2-1 + CN(C)c1ccc(Nc2c3ccc(NC(=O)CCN4CCCC4)cc3nc3cc(NC(=O)CCN4CCCC4)ccc23)cc1    NO

## Input Which result was noted for this compound in the test: Cn1ncnc1[C@H]1c2n[nH]c(=O)c3cc(F)cc(c23)N[C@@H]1c1ccc(F)cc1 + Cc1cnc(CNC(=O)c2c(=O)c3ccc(N4CCCN(C)CC4)nc3n3c2sc2ccccc23)cn1
## Output NO

## Input Please state the recorded outcome for this compound: CC(=O)O[C@H]1C(=O)[C@@]2(C)[C@H]([C@H](OC(=O)c3ccccc3)[C@]3(O)C[C@H](OC(=O)[C@H](O)[C@@H](NC(=O)c4ccccc4)c4ccccc4)C(C)=C1C3(C)C)[C@]1(OC(C)=O)CO[C@@H]1C[C@@H]2O + Cc1cnc(CNC(=O)c2c(=O)c3ccc(N4CCCN(C)CC4)nc3n3c2sc2ccccc23)cn1
## Output NO
